Reference source for all entries: patent US20160375006A1

TARGET OR TEST SYSTEM: GSK3β (Homo sapiens, UniProt P49841)
Sequence (P49841 whole entry): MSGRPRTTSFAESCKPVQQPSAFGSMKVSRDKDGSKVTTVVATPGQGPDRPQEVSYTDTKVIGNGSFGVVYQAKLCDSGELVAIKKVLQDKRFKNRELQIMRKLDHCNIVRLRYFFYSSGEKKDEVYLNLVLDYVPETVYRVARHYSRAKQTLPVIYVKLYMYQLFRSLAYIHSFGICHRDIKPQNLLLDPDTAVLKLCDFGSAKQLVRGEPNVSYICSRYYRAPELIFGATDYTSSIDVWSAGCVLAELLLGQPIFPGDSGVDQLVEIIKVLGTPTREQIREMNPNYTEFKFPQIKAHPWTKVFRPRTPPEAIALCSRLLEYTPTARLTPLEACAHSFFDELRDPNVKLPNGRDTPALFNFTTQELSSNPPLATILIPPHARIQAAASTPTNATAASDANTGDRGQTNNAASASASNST
MEASUREMENT DESCRIPTION: biochemical
RESULT TYPE: IC50 (nM)

// worked examples, IC50 included
MOLECULE: CCC1(c2ccccc2)C2=C(CC3(COC3)CC2=O)Nc2n[nH]cc21 (racemic) [Compound 236]
IC50 [nM]: 7860

MOLECULE: CC1(C)CC(=O)C2=C(C1)Nc1n[nH]c(C3CCCC3)c1C2(C)c1ccccc1 (racemic) [Compound 300]
IC50 [nM]: 439

MOLECULE: CC(C)(C)Cc1[nH]nc2c1C1(CCc3ccccc31)C1=C(CC(C)(C)CC1=O)N2 (racemic) [Compound 281]
IC50 [nM]: 4

MOLECULE: CC[C@@]1(c2ccccc2)C2=C(CC3(COC3)CC2=O)Nc2n[nH]cc21 (stereo in doubt) [Compound 237]
IC50 [nM]: 4850

MOLECULE: COc1ccccc1[C@H]1C2=C(CC(C)(C)CC2=O)Nc2n[nH]c(C(C)C)c21 [Compound 295]
IC50 [nM]: 57

MOLECULE: CC[C@]1(c2ccccc2)C2=C(CC3(COC3)CC2=O)Nc2n[nH]cc21 (stereo in doubt) [Compound 238]
IC50 [nM]: 12300

MOLECULE: CC1(C)CC(=O)C2=C(C1)Nc1n[nH]cc1C2(C)c1cccc(F)c1 (racemic) [Compound 201]
IC50 [nM]: 901

MOLECULE: COc1ccccc1[C@H]1C2=C(CC(C)(C)CC2=O)Nc2n[nH]c(C3CC(F)(F)C3)c21 (stereo in doubt) [Compound 251]
IC50 [nM]: 84

1 = CC(C)c1[nH]nc2c1[C@](C)(c1ccccc1)C1=C(CC(C)(C)CC1=O)N2 (stereo in doubt) [Compound 297]
2 = CC(C)(C)Cc1[nH]nc2c1[C@@]1(CCc3ccccc31)C1=C(CC(C)(C)CC1=O)N2 (stereo in doubt) [Compound 282]
3 = CCC(C)(C)Cc1[nH]nc2c1C(C)(c1ccccc1)C1=C(CC(C)(C)CC1=O)N2 (racemic) [Compound 290]
4 = CC(C)c1[nH]nc2c1[C@](C)(c1ccccc1F)C1=C(CC(C)(C)CC1=O)N2 (stereo in doubt) [Compound 312]
Query block: Your job: order these 4 records by IC50, ascending. Sort and list the labels as requested.
Result block: 2, 1, 3, 4
(2: 1.7 nM, 1: 24 nM, 3: 44 nM, 4: 66 nM)
